Tested on: housefly adults
Type: in vivo
Details: tetramethrin + 5 times weight of synergist; three batches (tetramethrin alone 0.530, 0.520, 0.570)
# LD50 values compiled below
MEASURED ATTRIBUTE: LD50

INSERT INTO assay_data (molecule, assayed_system, measured_attribute, observed_value) VALUES
  ('C#CCOCC(CC=C)(OC)c1ccccc1 (stereo not drawn)', 'housefly adults', 'LD50', '0.053 γ/Fly'),
  ('C#CCOC(=O)C(OC)(c1ccccc1)C1CCCCC1 (stereo not drawn)', 'housefly adults', 'LD50', '0.111 γ/Fly'),
  ('C#CCOC(=O)C(Cc1ccccc1)(OCC)c1ccccc1 (stereo not drawn) [Present compound (12), Propargyl α-benzyl-α-ethoxyphenylacetate]', 'housefly adults', 'LD50', '0.052 γ/Fly'),
  ('C#CCOC(=O)C(OC)(c1ccccc1)c1cccs1 (stereo not drawn)', 'housefly adults', 'LD50', '0.064 γ/Fly'),
  ('C#CCOC(=O)C(CC(C)C)(OC)c1ccccc1 (stereo not drawn)', 'housefly adults', 'LD50', '0.066 γ/Fly'),
  ('C#CCOC(=O)C(CC=C)(OCC)c1ccccc1 (stereo not drawn) [Present compound (5), Propargyl α-allyl-α-ethoxyphenylacetate]', 'housefly adults', 'LD50', '0.042 γ/Fly'),
  ('C#CCOC(=O)C(Cc1ccccc1)(OC)c1ccccc1 (stereo not drawn)', 'housefly adults', 'LD50', '0.046 γ/Fly'),
  ('C#CCCOC(=O)C(OC)(c1ccccc1)c1ccccc1', 'housefly adults', 'LD50', '0.055 γ/Fly'),
  ('C#CCOC(=O)C(CC=C)(OCCC)c1ccccc1 (stereo not drawn)', 'housefly adults', 'LD50', '0.067 γ/Fly'),
  ('C#CCOCC(CCC)(OC)c1ccccc1 (stereo not drawn)', 'housefly adults', 'LD50', '0.067 γ/Fly'),
  ('C#CCCOC(=O)C(OCCC#C)(c1ccccc1)c1ccccc1', 'housefly adults', 'LD50', '0.047 γ/Fly'),
  ('C#CCOC(=O)C(CCCCCC)(OC)c1ccccc1 (stereo not drawn)', 'housefly adults', 'LD50', '0.128 γ/Fly');
